The values you see were collected from patent US20260285880A1.

molecular target: Flpin-293-PDE4B2 cells (Homo sapiens, UniProt Q07343); experiment: cell-based; conditions: read-out: Cell Inhibition % @100 nM, 100 nM, Flpin-293-PDE4B2 cells
Sequence (Q07343 1-564 isoform Q07343-2): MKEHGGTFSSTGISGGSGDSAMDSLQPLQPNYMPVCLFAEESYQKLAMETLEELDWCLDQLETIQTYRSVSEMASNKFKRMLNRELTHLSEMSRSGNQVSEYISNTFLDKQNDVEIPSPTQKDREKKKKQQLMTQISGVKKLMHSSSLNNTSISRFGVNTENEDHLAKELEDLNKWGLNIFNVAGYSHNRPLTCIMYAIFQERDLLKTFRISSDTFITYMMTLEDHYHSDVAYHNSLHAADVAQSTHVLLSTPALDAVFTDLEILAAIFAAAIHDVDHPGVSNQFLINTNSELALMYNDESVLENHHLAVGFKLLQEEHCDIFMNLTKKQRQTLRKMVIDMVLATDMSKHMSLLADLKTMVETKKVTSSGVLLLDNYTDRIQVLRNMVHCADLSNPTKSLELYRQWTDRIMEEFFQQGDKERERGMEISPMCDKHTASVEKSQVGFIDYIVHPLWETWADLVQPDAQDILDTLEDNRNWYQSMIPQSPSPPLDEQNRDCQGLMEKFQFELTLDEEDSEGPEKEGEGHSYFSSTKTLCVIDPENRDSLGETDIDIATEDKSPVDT
Known inhibition at 0.1 µM of a selection of compounds
Please respond with the number in % and leave the unit unwritten.

{"columns": ["compound", "target_entity", "value"],
 "data": [
  ["CN1C[C@@H]2CCN(c3ccc4c(c3)CCN(c3nc5c(c(NC6(CO)CCC6)n3)[S+]([O-])CC5)C4)[C@@H]2C1 (stereo partly shown)", "Flpin-293-PDE4B2 cells (Homo sapiens, UniProt Q07343)", 93.8],
  ["C[C@H]1c2ccc(N3CCCC3)cc2CCN1c1nc2c(c(Nc3cnn(C)c3)n1)[S+]([O-])CC2 (stereo partly shown)", "Flpin-293-PDE4B2 cells (Homo sapiens, UniProt Q07343)", 100],
  ["[O-][S+]1CCc2nc(N3CCc4cc(N5CC[C@@H](O)C5)ccc4C3)nc(NC3(CO)CCC3)c21 (stereo partly shown)", "Flpin-293-PDE4B2 cells (Homo sapiens, UniProt Q07343)", 100]
]}

Now for a further compound.
Which inhibition at 0.1 µM is listed for Cc1ccc2c(c1)OC[C@H]1CN(c3nc4c(c(NC5(CO)CCC5)n3)[S+]([O-])CC4)CC[C@H]21 (stereo partly shown) ?
99.4

* * *

molecular target: Flpin-293-PDE4B2 cells (Homo sapiens, UniProt Q07343); test: cell-based; settings: read-out: Cell Inhibition % @1 nM, 1 nM, Flpin-293-PDE4B2 cells
quantity_name: inhibition at 0.001 µM (%)
A number alone suffices; assume %.

Worked cases, inhibition at 0.001 µM given:
{"columns": ["compound", "target_entity", "output_unit", "inhibition at 0.001 µM"],
 "data": [
  ["Cn1ccc(-c2ccc3c(c2)CCN(c2nc4c(c(NC5(CO)CCC5)n2)[S+]([O-])CC4)C3)n1 (stereo not shown)", "Flpin-293-PDE4B2 cells (Homo sapiens, UniProt Q07343)", "%", 61],
  ["CN1C[C@H]2C[C@@H]1CN2c1ccc2c(c1)CCN(c1nc3c(c(NC4(CO)CCC4)n1)[S+]([O-])CC3)C2 (stereo partly shown)", "Flpin-293-PDE4B2 cells (Homo sapiens, UniProt Q07343)", "%", 12],
  ["[O-][S+]1CCc2nc(N3CC[C@@H]4c5ccc(Cl)nc5OC[C@H]4C3)nc(NC3(CO)CCC3)c21 (stereo partly shown)", "Flpin-293-PDE4B2 cells (Homo sapiens, UniProt Q07343)", "%", 14],
  ["Cn1cc(Nc2nc(N3CCc4cc(Cl)ccc4C3)nc3c2[S+]([O-])CC3)cn1 (stereo not shown)", "Flpin-293-PDE4B2 cells (Homo sapiens, UniProt Q07343)", "%", 11.4],
  ["[O-][S+]1CCc2nc(N3CCc4cc(-c5ncco5)ccc4C3)nc(NC3(CO)CCC3)c21 (stereo not shown)", "Flpin-293-PDE4B2 cells (Homo sapiens, UniProt Q07343)", "%", 32.9],
  ["[O-][S+]1CCc2nc(N3CCc4cc(N5CC(F)C5)ccc4C3)nc(NC3(CO)CCC3)c21 (stereo not shown)", "Flpin-293-PDE4B2 cells (Homo sapiens, UniProt Q07343)", "%", 3.47]
]}

Okay, now this compound:
I would be grateful if you could share the reported inhibition at 0.001 µM for CN1CCN(c2ccc3c(c2)CCN(c2nc4c(c(NC5(CO)CCC5)n2)[S+]([O-])CC4)C3)C1=O (stereo not shown) .
8.69

* * *

target: Flpin-293-PDE4B2 cells (Homo sapiens); assay: cell-based; settings: read-out: Cell Inhibition % @100 nM, 100 nM, Flpin-293-PDE4B2 cells
quantity_name: inhibition at 0.1 µM (%)
Field: numeric (%). Do not append units.

The examples below pair each entry with its known result.
{"columns": ["compound", "inhibition at 0.1 µM, %"],
 "data": [
  ["Cn1cnc(-c2ccc3c(c2)CCN(c2nc4c(c(NC5(CO)CCC5)n2)[S+]([O-])CC4)C3)n1 (stereo not drawn) [Compound 94]", 100],
  ["[O-][S+]1CCc2nc(N3CCc4c(nn5cc(F)ccc45)C3)nc(NC3(CO)CCC3)c21 (stereo not drawn) [Compound 32]", 97.7],
  ["C[C@H]1c2ccc(N3CCCC3)cc2CCN1c1nc2c(c(N[C@@H]3CC[C@H]3O)n1)[S+]([O-])CC2 (stereo partly drawn) [Compound 201]", 99.9],
  ["COc1nn(C)cc1Nc1nc(N2CCc3cc(N4CCCC4)ccc3C2)nc2c1[S+]([O-])CC2 (stereo not drawn) [Compound 193]", 96],
  ["Cn1cc(Nc2nc(N3CCc4cc(N5CCCC5)ccc4C3)nc3c2[S+]([O-])CC3)cn1 (stereo not drawn) [Compound 168]", 98.6]
]}

Quick one: inhibition at 0.1 µM of NC(=O)c1ccc2c(c1)CCN(c1nc3c(c(NC4(CO)CCC4)n1)[S+]([O-])CC3)C2 (stereo not drawn) [Compound 75] ?
51.4

Returns the measured inhibition at 0.1 µM for the input compound. Input: COc1nc2c(c3ccc(Cl)cc13)CCN(c1nc3c(c(NC4(CO)CCC4)n1)[S+]([O-])CC3)C2 (stereo not drawn) [Compound 99]
96.5

Quick check: inhibition at 0.1 µM of C[C@H]1c2ccc(N3CCCC3)cc2CCN1c1nc2c(c(NC3CS(=O)(=O)C3)n1)[S+]([O-])CC2 (stereo partly drawn) [Compound 204] ?
100

Look up inhibition at 0.1 µM: C[C@H]1c2ccc(N3CCCC3)cc2CCN1c1nc2c(c(N[C@H]3CCC(=O)N(C)C3)n1)[S+]([O-])CC2 (stereo partly drawn) [Compound 202]
101

If you can, please state the reported inhibition at 0.1 µM value of C[C@H]1c2ccc(N3CCCC3)cc2CCN1c1nc2c(c(NC3(CO)CCCC3)n1)[S+]([O-])CC2 (stereo partly drawn) [Compound 221] .
99.7

Which inhibition at 0.1 µM value is on record for Cn1cc(Nc2nc(N3CCc4cc(N5CC6CC6C5)ccc4C3)nc3c2[S+]([O-])CC3)cn1 (stereo not drawn) [Compound 223] ?
99.2

Please report the recorded inhibition at 0.1 µM for [O-][S+]1CCc2nc(N3CC[C@@H]4c5ccc(C(F)(F)F)cc5OC[C@H]4C3)nc(NC3(CO)CCC3)c21 (stereo partly drawn) [Compound 111] .
81.1

Endpoint output: inhibition at 0.1 µM of CN1CC2CN(c3ccc4c(c3)CCN(c3nc5c(c(NC6(CO)CCC6)n3)[S+]([O-])CC5)C4)CC2C1 (stereo not drawn) [Compound 179] . Value?
92.2

Form field: reported inhibition at 0.1 µM of C[C@@H]1CCCN1c1ccc2c(c1)CCN(c1nc3c(c(NC4(CO)CCC4)n1)[S+]([O-])CC3)C2 (stereo partly drawn) [Compound 133]
94.2

* * *

target: Flpin-293-PDE4B2 cells (Homo sapiens, UniProt Q07343); assay: cell-based; conditions: read-out: Cell Inhibition % @10 nM, 10 nM, Flpin-293-PDE4B2 cells
Label Criterion not met if inhibition at 0.01 µM falls below 50%; label Criterion met in every other case.

Check the entry [O-][S+]1CCc2nc(N3CCc4cc(N5CCCCC5)ccc4C3)nc(NC3(CO)CCC3)c21 (stereo not drawn) : does inhibition at 0.01 µM equal or exceed 50%?
Criterion met

API: above_or_equal(metric=inhibition at 0.01 µM, cutoff=50%) for item C[C@H]1c2ccc(N3CCCC3)cc2CCN1c1nc2c(c(NC3(CO)CC3)n1)[S+]([O-])CC2 (stereo partly drawn)
Criterion met

* * *

Each entry below carries its reported IC50.
target: PDE4D2 (Homo sapiens); assay: PDE4D2 enzyme experiment (AMP-Glo); details: read-out: PDE4D2 IC50 Binding; enzyme assay
Sequence (Q08499 303-809 limits assumed): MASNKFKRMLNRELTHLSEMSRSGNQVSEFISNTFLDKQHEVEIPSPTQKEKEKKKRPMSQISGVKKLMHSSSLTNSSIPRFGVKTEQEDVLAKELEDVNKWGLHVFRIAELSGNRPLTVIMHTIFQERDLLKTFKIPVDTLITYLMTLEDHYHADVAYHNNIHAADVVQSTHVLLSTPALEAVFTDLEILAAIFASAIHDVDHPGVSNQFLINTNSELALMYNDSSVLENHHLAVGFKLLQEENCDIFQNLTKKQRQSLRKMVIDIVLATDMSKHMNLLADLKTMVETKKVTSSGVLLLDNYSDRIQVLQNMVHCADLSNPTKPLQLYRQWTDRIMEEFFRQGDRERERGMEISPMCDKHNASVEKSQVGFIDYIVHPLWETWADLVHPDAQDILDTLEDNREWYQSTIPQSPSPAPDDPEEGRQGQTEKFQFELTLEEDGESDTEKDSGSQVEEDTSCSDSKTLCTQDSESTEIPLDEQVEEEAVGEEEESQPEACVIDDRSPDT
Include the unit right after the number.

// known answers, use as guide
{"columns": ["compound", "target_entity", "IC50"],
 "data": [
  ["[O-][S+]1CCc2nc(N3CCc4nc(N5CCCC5)sc4C3)nc(NC3(CO)CCC3)c21 (stereo not drawn)", "PDE4D2 (Homo sapiens)", "1.12 nM"],
  ["Cn1cc(CNc2nc(N3CCc4cc(Cl)ccc4C3)nc3c2[S+]([O-])CC3)cn1 (stereo not drawn)", "PDE4D2 (Homo sapiens)", "2.27 nM"],
  ["C[C@@H]1CCCN1c1ccc2c(c1)CCN(c1nc3c(c(NC4(CO)CCC4)n1)[S+]([O-])CC3)C2 (stereo partly drawn)", "PDE4D2 (Homo sapiens)", "1.55 nM"],
  ["C[C@H]1c2ccc(N3CCCC3)cc2CCN1c1nc2c(c(Nc3cnn(CCO)c3)n1)[S+]([O-])CC2 (stereo partly drawn)", "PDE4D2 (Homo sapiens)", "1.21 nM"],
  ["[O-][S+]1CCc2nc(N3CCc4cc(N5CCC6(COC6)C5)ccc4C3)nc(NC3(CO)CCC3)c21 (stereo not drawn)", "PDE4D2 (Homo sapiens)", "0.398 nM"],
  ["[O-][S+]1CCc2nc(N3CCc4cc(N5CCCC5)ccc4C3)nc(NC3CCOCC3)c21 (stereo not drawn)", "PDE4D2 (Homo sapiens)", "0.145 nM"],
  ["CN(C)c1ccc2c(c1)CCN(c1nc3c(c(NC4(CO)CCC4)n1)[S+]([O-])CC3)C2 (stereo not drawn)", "PDE4D2 (Homo sapiens)", "1.64 nM"],
  ["[O-][S+]1CCc2nc(N3CCc4cc(N5CCC(F)C5)ccc4C3)nc(NC3(CO)CCC3)c21 (stereo not drawn)", "PDE4D2 (Homo sapiens)", "1.08 nM"]
]}

Which IC50 is reported for this compound? [O-][S+]1CCc2nc(N3CCc4cc(N5CC6CC6C5)ccc4C3)nc(NC3(CO)CCC3)c21 (stereo not drawn)
0.985 nM

Please look up its IC50: COc1nn(C)cc1Nc1nc(N2CCc3cc(N4CCCC4)ccc3C2)nc2c1[S+]([O-])CC2 (stereo not drawn)
1.27 nM

I'd like to know its IC50. The compound in question is N#CC1CCN(c2ccc3c(c2)CCN(c2nc4c(c(NC5(CO)CCC5)n2)[S+]([O-])CC4)C3)C1 (stereo not drawn) [Compound 159]
0.389 nM

What value of IC50 has been recorded for this entry: CN1C[C@@H](Nc2nc(N3CCc4cc(N5CCCC5)ccc4C3)nc3c2[S+]([O-])CC3)CCC1=O (stereo partly drawn)
0.0263 nM

Consider the compound CN1CC(Nc2nc(N3CCc4cc(Cl)ccc4C3)nc3c2[S+]([O-])CC3)CCC1=O (stereo not drawn) and give its measured IC50.
0.0825 nM
